- system-name: Estrogen receptor (Homo sapiens)
- Sequence (P03372 whole entry): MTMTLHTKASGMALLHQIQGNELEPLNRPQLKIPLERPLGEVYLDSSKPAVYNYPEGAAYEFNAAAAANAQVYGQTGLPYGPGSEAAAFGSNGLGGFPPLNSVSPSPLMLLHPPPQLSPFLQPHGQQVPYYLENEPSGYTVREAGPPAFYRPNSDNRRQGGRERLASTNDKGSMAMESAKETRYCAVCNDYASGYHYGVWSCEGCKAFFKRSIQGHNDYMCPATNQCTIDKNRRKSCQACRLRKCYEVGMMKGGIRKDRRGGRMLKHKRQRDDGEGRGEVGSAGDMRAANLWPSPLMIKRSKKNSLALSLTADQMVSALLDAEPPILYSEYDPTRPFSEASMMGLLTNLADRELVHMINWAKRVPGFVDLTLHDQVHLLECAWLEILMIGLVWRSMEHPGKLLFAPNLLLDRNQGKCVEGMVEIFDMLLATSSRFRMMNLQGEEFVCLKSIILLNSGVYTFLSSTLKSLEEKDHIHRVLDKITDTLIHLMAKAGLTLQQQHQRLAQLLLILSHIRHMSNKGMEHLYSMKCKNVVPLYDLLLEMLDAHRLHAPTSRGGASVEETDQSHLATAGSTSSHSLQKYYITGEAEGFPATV
outcome-measure: IC50 (nM)

[[record]]
compound = "CCC(=C(c1ccc(O)cc1)c1ccc(/C=C/C(=O)NCCCCCNC(=O)CCc2nc3cc(O)ccc3[nH]2)cc1)c1ccccc1 (mixture of isomers)"
outcome_measure = "IC50"
measured_number = 125

